property measured: melting point

compound	melting point
COc1cc(C(=O)c2sc(NCc3ccccc3)nc2N)cc(OC)c1OC [8a]	147 to 149 °C
COc1ccc(CNc2nc(N)c(C(=O)c3cc(OC)c(OC)c(OC)c3)s2)cc1 [8j]	131 to 135 °C
COc1cc(C(=O)c2sc(NCc3ccc(F)cc3)nc2N)cc(OC)c1OC [8d]	132 to 134 °C
COc1cc(C(=O)c2sc(NCCc3ccccc3)nc2N)cc(OC)c1OC [8b]	135 to 138 °C

Reported melting point for COc1cc(C(=O)c2sc(NCc3cccc(C)c3)nc2N)cc(OC)c1OC [8i] : what is it? 150 to 152 °C

* * *

test: Cytotoxicity against peripheral blood lymphocytes, MTT assay; assay type: cell-based; settings: human, peripheral blood lymphocytes (PBL) from healthy donors, read-out: IC50 cytotoxic activity against normal cells (PBL)
property measured: IC50 at 48 h

chem smiles	IC50 at 48 h
COc1cc(C(=O)c2sc(NCCc3ccc(Cl)cc3)nc2N)cc(OC)c1OC	> 100 µM

Let us move to another entry and its IC50 at 48 h.
Can you share its IC50 at 48 h? I mean this compound: COc1ccc(CCNc2nc(N)c(C(=O)c3cc(OC)c(OC)c(OC)c3)s2)cc1 > 100 µM
